Sourced from patent US11319299B2

biological target: WDR5 (Homo sapiens (Human), UniProt P61964); experiment: Surface Plasmon Resonance (SPR) assay, KD and residence time; format: binding; settings: surface plasmon resonance (SPR) assay; read-out: WDR5 binding affinity (KD)
quantity measured: Kd (nM)

{"molecule": "C[C@@H]1CN(c2cc(F)c(C3=CC4CCC(C3)N4C(=O)OC(C)(C)C)cc2NC(=O)c2cn(C)c(=O)cc2C(F)(F)F)C[C@H](C)N1C (mixture of isomers)", "unit name": "nM", "Kd": 123}

P: CCCN(C)C1CCN(c2cc(F)c(-c3cnc(N4CCOCC4)nc3)cc2NC(=O)c2c[nH]c(=O)cc2C(F)(F)F)C1 (stereo not drawn)
Q: C[C@@H]1CN(c2cc(F)c(-c3cncc(C#N)c3)cc2NC(=O)c2c[nH]c(=O)cc2C(F)(F)F)C[C@H](C)N1C
R: C[C@@H]1CN(c2cc(F)c(-c3ccc4c(c3)OCCO4)cc2NC(=O)c2c[nH]c(=O)cc2C(F)(F)F)C[C@H](C)N1C
# input Sort entries by Kd from minimum to maximum value. Answer by listing the labels in the order asked for.
# output R, P, Q

###

Molecular target: WDR5 (Homo sapiens (Human), UniProt P61964)
Experiment: Surface Plasmon Resonance (SPR) assay, KD and residence time
Type: binding
Settings: surface plasmon resonance (SPR) assay; read-out: WDR5 binding affinity (KD)
Method: (i) Surface Plasmon Resonance (SPR) Assay The lifetime of a drug on its target is determined by two rate constants: the association rate constant (kon) and the dissociation rate constant (koff). […] Drug-target residence time is defined as the reciprocal of koff (τ=1/koff), making the residence time a parameter that is easily measured by routine in vitro assay methods.
pKd: −log10 of the molar value.
quantity measured: pKd

Guide cases for pKd, answers given:
{"molecule": "COc1cccc(C(=O)Nc2cc(-c3cnc(N4CCOCC4)nc3)c(F)cc2N2C[C@@H](C)N(C)[C@@H](C)C2)c1 [Example 89]", "quantity measured": "pKd", "numeric result": 7.47}
{"molecule": "Cc1ncc(CN2CC=C(c3cc(NC(=O)c4c[nH]c(=O)cc4C(F)(F)F)c(N4C[C@@H](C)N(C)[C@@H](C)C4)cc3F)CC2)o1 [Example 163]", "quantity measured": "pKd", "numeric result": 8.39}
{"molecule": "COc1cc(C(=O)Nc2cc(-c3cnc(N4CCOCC4)nc3)c(F)cc2N2C[C@@H](C)N(C)[C@@H](C)C2)ccc1F [Example 75]", "quantity measured": "pKd", "numeric result": 7.39}

1: CN1CCN(c2cc(F)c(-c3cnc(N4CCOCC4)nc3)cc2NC(=O)c2c[nH]c(=O)cc2C(F)(F)F)CC1(C)C [Example 225]
2: C[C@@H]1CN(c2cc(F)c(-c3cnc(N(C)C)c(C#N)c3)cc2NC(=O)c2c[nH]c(=O)cc2C(F)(F)F)C[C@H](C)N1C [Example 220]
3: C[C@@H]1CN(c2cc(F)c(C3=CCN(c4ccccc4)CC3)cc2NC(=O)c2c[nH]c(=O)cc2C(F)(F)F)C[C@H](C)N1C [Example 73]
4: C[C@@H]1CN(c2cc(F)c(-c3ccc(C#N)cc3)cc2NC(=O)c2c[nH]c(=O)cc2C(F)(F)F)C[C@H](C)N1C [Example 100]
# input Sort entries by pKd from minimum to maximum value. Answer by listing the labels in the order asked for.
# output 1, 3, 2, 4

P: CC1CN(c2cc(F)c(-c3cnc(N4CCOC(C)(C)C4)nc3)cc2NC(=O)c2c[nH]c(=O)cc2C(F)(F)F)CCN1C (stereo in doubt) [Example 349]
Q: C[C@@H]1CC(N2CC=C(c3cc(NC(=O)c4c[nH]c(=O)cc4C(F)(F)F)c(N4C[C@@H](C)N(C)[C@@H](C)C4)cc3F)CC2)C[C@H](C)O1 (stereo partly shown) [Example 289]
# input Of P and Q , which carries the smaller reported pKd figure? Mark your selection by writing its label.
# output Q
(Q: 8.43, P: 8.63)
